# Test System: human collagen type I (acid soluble, extracted from placenta, Sigma C7774) (human) (UniProt P02452)
# Sequence (P02452 162-1218 limits assumed, chain 1 of 2): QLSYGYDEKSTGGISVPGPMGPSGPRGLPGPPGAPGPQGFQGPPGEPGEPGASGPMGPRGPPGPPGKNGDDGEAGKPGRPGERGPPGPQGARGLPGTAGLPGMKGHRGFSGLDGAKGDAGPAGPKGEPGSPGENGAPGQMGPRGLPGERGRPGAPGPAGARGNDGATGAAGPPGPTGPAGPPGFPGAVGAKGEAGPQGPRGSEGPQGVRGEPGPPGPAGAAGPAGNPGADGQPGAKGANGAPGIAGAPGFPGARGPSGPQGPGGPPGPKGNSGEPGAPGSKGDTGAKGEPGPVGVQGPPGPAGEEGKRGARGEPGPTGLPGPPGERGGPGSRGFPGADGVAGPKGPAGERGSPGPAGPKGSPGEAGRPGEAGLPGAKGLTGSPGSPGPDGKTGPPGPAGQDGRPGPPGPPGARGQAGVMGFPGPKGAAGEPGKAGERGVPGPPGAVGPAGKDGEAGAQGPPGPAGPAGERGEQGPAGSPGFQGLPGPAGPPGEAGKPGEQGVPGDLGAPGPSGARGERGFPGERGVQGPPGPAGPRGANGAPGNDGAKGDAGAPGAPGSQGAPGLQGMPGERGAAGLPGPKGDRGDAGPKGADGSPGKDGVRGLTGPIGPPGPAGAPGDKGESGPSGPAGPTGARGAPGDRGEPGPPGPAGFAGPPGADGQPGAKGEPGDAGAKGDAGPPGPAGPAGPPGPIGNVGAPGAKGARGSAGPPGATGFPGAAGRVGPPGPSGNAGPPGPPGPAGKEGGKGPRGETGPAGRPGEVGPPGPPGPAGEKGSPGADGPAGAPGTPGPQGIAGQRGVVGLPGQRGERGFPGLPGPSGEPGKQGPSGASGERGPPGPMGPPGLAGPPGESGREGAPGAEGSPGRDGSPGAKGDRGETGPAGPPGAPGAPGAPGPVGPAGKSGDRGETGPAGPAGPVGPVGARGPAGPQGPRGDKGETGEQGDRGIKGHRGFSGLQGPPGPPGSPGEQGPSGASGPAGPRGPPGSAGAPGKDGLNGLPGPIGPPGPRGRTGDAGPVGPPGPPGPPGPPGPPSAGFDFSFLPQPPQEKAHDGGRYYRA
# Sequence (P08123 80-1119 limits assumed, chain 2 of 2, further chain): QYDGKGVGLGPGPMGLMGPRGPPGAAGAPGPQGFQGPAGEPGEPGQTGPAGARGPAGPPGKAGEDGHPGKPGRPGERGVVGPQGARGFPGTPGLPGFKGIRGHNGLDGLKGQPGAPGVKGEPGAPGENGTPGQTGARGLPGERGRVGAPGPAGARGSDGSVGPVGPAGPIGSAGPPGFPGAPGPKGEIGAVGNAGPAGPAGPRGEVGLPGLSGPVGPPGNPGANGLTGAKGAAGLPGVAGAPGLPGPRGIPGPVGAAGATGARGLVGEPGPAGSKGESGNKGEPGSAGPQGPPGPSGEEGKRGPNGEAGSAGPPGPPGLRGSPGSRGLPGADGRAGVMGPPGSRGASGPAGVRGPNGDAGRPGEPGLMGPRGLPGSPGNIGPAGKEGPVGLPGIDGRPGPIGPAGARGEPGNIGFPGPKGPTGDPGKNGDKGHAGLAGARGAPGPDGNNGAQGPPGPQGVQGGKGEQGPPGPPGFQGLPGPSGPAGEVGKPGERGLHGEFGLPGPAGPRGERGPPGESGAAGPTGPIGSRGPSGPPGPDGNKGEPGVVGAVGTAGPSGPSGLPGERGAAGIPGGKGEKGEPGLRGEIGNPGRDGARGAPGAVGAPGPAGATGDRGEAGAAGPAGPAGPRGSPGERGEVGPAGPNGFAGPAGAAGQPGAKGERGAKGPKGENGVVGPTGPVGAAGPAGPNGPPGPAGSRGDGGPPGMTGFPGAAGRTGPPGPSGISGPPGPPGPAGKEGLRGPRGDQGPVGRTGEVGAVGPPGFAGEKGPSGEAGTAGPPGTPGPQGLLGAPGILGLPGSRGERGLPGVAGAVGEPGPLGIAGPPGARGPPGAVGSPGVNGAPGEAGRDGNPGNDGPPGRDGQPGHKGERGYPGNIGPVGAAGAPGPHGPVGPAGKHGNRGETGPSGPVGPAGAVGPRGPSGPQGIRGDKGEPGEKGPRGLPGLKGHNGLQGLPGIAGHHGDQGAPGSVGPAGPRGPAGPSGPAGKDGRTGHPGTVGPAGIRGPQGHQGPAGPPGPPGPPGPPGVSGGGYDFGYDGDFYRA
# Protocol Notes: dried collagen assay
Bridge positions count the residues as written; N and C are the ends. Square brackets hold non-standard residues; d marks the D form. Ends that are not written are not given here.
Readout Label: % Collagen Binding (%)

Illustrative cases are given below, each with its answer.
[Q] Look at this binder and give its reported % Collagen Binding. GQWTCSGDEYTWHCNY[dE] (disulfide 5-14 (inferred); not fully specified (C-terminus); printed as Q W T C S G D E Y T W H C N Y e) [SEQ ID NO: 178]
[A] 90

[Q] And the next one, GQWTCSGDEYSWHCNY[dE] (disulfide 5-14 (inferred)) [SEQ ID NO: 125] ?
[A] 85

[Q] And the next one, GQWTCSGDEYTWHCN[dY]E (disulfide 5-14 (inferred); not fully specified (C-terminus); printed as Q W T C S G D E Y T W H C N y E) [SEQ ID NO: 177] ?
[A] 30

[Q] And the next one, GQWTCSG[dD]EYTWHCNYE (disulfide 5-14 (inferred)) [SEQ ID NO: 169] ?
[A] 11

[Q] And the next one, GQWTCSGDEYTWH[dC]NYE (disulfide 5-14 (inferred); not fully specified (C-terminus); printed as Q W T C S G D E Y T W H c N Y E) [SEQ ID NO: 175] ?
[A] 2

[Q] And the next one, GQ[dW]TCSGDEYTWHCNYE (disulfide 5-14 (inferred)) [SEQ ID NO: 165] ?
[A] 2

a. GQWTCSGDEY[dA]WHCNA[dE] (disulfide 5-14 (inferred)) [SEQ ID NO: 124]
b. GQW[dT]CSGDEYTWHCNYE (disulfide 5-14 (inferred)) [SEQ ID NO: 166]
c. DWTCSLDEYTWHCNYE [SEQ ID NO: 183]
[Q] Give the ascending ranking of the items by reported % Collagen Binding. Put the labels in the order asked and list them.
[A] b, a, c
(b: 2%, a: 24%, c: 73%)

1. YHACYQAGCYIY (disulfide 4-9; not fully specified (C-terminus)) [SEQ ID NO: 108]
2. DWTCSYDEYTWHCNYE [SEQ ID NO: 182]
[Q] Field: lower recorded % Collagen Binding (choose 1 or 2 ) I would appreciate it if you answered with the label of your choice.
[A] 1
(1: 5%, 2: 89%)
